Target: human full length HSD11β1 (Homo sapiens)
Construct: transient expression of human full length HSD11β1 expression vector
Assay: In Vitro HSD11β1 Inhibition Assay
Details: CHO cells transiently expressing human HSD11β1; 200 nM cortisone+500 uM NADPH overnight; cortisone to cortisol by LC/MS-MS; read-out: 11βHSD1 (IC50)
pIC50: −log10 of the molar value.
measurement.name: pIC50

molecule	test.result
CC(C)Oc1cccc2[nH]cc(C(C)CC(=O)N3C4CC5CC3CC(O)(C5)C4)c12 (single isomer, unassigned) [Compound 179]	< 6.60
O=C(CCc1nc2ccccc2s1)N1C2CC3CC1CC(O)(C3)C2 [Example 12]	< 6.60
O=C(CCc1c[nH]c2cc(F)ccc12)N1C2CC3CC(C2)CC1C3 [Example 5]	6.60 to 6.70
CC(CC(=O)N1C2CC3(O)CC1CC(O)(C2)C3)c1c[nH]c2ccc(Cl)c(C3CC3)c12 (stereo not shown) [Compound 163]	< 6.60
CC(CC(=O)N1C2CC3CC(C2)CC1C3)c1nc2ccccc2s1 (stereo not shown) [Compound 105]	> 7.00
O=C(CCc1nc2ccccc2s1)N1C2CC3CC1CC(OC(F)F)(C3)C2 [Example 13]	< 6.60
CC(CC(=O)N1C2CC3CC1CC(O)(C3)C2)c1c[nH]c2nccc(C3CC3)c12 (stereo not shown) [Compound 132]	> 7.00
CC(CC(=O)N1C2CC3CC1CC(O)(C3)C2)c1c[nH]c2ncc(Cl)c(C3CC3)c12 (stereo not shown) [Compound 198]	> 7.00
CC(CC(=O)N1C2CC3CC1CC(C(N)=O)(C3)C2)c1nc2ccc(Cl)cc2s1 (stereo not shown) [Compound 196]	< 6.60
CC(CC(=O)N1C2CC3CC1CC(C(=O)O)(C3)C2)c1c[nH]c2cccc(Cl)c12 (stereo not shown) [Example 43]	< 6.60
O=C(CC(c1ccc(F)cc1)c1c[nH]c2ccccc12)N1C2CC3CC1CC(O)(C3)C2 (stereo not shown) [Compound 73]	> 7.00
O=C(CC(c1ccc(F)cc1F)c1c[nH]c2ccccc12)N1C2CC3CC1CC(O)(C3)C2 (stereo not shown) [Compound 96]	6.82 to 7.00
COc1ccc2[nH]cc(C(C)CC(=O)N3C4CC5CC3CC(F)(C5)C4)c2c1 (stereo not shown) [Compound 224]	< 6.60
CC(C)C(CC(=O)N1C2CC3CC1CC(C#N)(C3)C2)c1c[nH]c2ncccc12 (stereo not shown) [Compound 92]	< 6.60
CC(CC(=O)N1C2CC3CC1CC(O)(C3)C2)c1c[nH]c2ccc(Cl)c(Cl)c12 (stereo not shown) [Compound 168]	> 7.00
CC(C)Oc1cccc2[nH]cc(C(C)CC(=O)N3C4CC5CC3CC(F)(C5)C4)c12 (single isomer, unassigned) [Compound 185]	< 6.60
Cc1c(F)ccc2[nH]cc(C(C)CC(=O)N3C4CC5CC3CC(O)(C5)C4)c12 (single isomer, unassigned) [Compound 148]	> 7.00
CC(CC(=O)N1C2CC3CC1CC(O)(C3)C2)c1c[nH]c2ncc(Cl)cc12 (stereo not shown) [Compound 135]	< 6.60
Cc1cccc2[nH]cc(C(C)CC(=O)N3C4CC5CC3CC(c3nnn[nH]3)(C5)C4)c12 (stereo not shown) [Compound 77]	< 6.60
CC(CC(=O)N1C2CC3CC1CC(O)(C3)C2)c1nc2ccc(Cl)cc2s1 (single isomer, unassigned) [Compound 195]	< 6.60
O=C(CC(c1ccccc1)c1c[nH]c2cc(F)ccc12)N1C2CC3CC1CC(O)(C3)C2 (stereo not shown) [Compound 94]	> 7.00
Cc1cccc2[nH]cc(CCC(=O)N3C4CC5CC3CC(O)(C5)C4)c12 [Compound 116]	6.60 to 6.70
CC(CC(=O)N1C2CC3CC(C2)CC1C3)c1nc2c(Cl)cccc2s1 (stereo not shown) [Compound 119]	> 7.00
CC(CC(=O)N1C2CC3CC1CC(CC(=O)O)(C3)C2)c1c[nH]c2cccc(-c3cccs3)c12 (stereo not shown) [Compound 154]	< 6.60
CC(CC(=O)N1C2CC3CC1CC(C#N)(C3)C2)c1nc2ccccc2s1 (stereo not shown) [Compound 118]	< 6.60
Cc1cccc2c1c(C(C)CC(=O)N1C3CC4CC1CC(O)(C4)C3)cn2C (stereo not shown) [Compound 206]	< 6.60
O=C(CC(c1ccccc1)n1nnc2ccccc21)N1C2CC3CC1CC(O)(C3)C2 (stereo not shown) [Compound 121]	< 6.60
CC(C)Oc1cccc2[nH]cc(C(C)CC(=O)N3C4CC5CC3CC(F)(C5)C4)c12 (single isomer, unassigned) [Compound 184]	> 7.00
CC(CC(=O)N1C2CC3CC1CC(O)(C3)C2)c1c[nH]c2cc(F)ccc12 (single isomer, unassigned) [Compound 98]	> 7.00
CC(CC(=O)N1C2CC3CC1CC(O)(C3)C2)c1c[nH]c2cccc(C3CC3)c12 (single isomer, unassigned) [Compound 103]	< 6.60
CC(CC(=O)N1C2CC3CC1CC(O)(C3)C2)c1c[nH]c2cc(F)ccc12 (stereo not shown) [Compound 79]	6.82 to 7.00

====

Target: human full length HSD11β1 (Homo sapiens)
Construct: transient expression of human full length HSD11β1 expression vector
Test: In Vitro HSD11β1 Inhibition Assay
Settings: CHO cells transiently expressing human HSD11β1; 200 nM cortisone+500 uM NADPH overnight; cortisone to cortisol by LC/MS-MS; read-out: 11βHSD1 (IC50)
pIC50: −log10 of the molar value.
measurement.name: pIC50

molecule	measurement.name	test.result
Cc1cccc2[nH]cc(C(CC(=O)N3C4CC5CC3CC(O)(C5)C4)C(C)C)c12 (stereo not shown) [Compound 74]	pIC50	< 6.60
CC(CC(=O)N1C2CC3CC1CC(O)(C3)C2)c1c[nH]c2cccc(-c3ccsc3)c12 (stereo not shown) [Compound 187]	pIC50	6.82 to 7.00
Cc1ccc2[nH]cc(C(C)CC(=O)N3C4CC5CC3CC(O)(C5)C4)c2c1C (single isomer, unassigned) [Compound 169]	pIC50	> 7.00
CC(CC(=O)N1C2CC3CC1CC(CC(=O)O)(C3)C2)c1c[nH]c2cccc(-c3ccc(F)o3)c12 (stereo not shown) [Compound 215]	pIC50	< 6.60
O=C(CC(c1ccc(F)cc1)c1c[nH]c2ccccc12)N1C2CC3CC1CC(O)(C3)C2 (single isomer, unassigned) [Compound 81]	pIC50	< 6.60
CC(CC(=O)N1C2CC3CC1CC(O)(C3)C2)c1c[nH]c2cccc(Oc3ccc(Cl)cc3)c12 (stereo not shown) [Example 44]	pIC50	6.60 to 6.70
CC(CC(=O)N1C2CC3CC(C2)CC1C3)c1c[nH]c2ccccc12 (stereo not shown) [Example 17]	pIC50	6.82 to 7.00

====

Molecular target: human full length HSD11β1 (Homo sapiens)
Construct: transient expression of human full length HSD11β1 expression vector
Test: In Vitro HSD11β1 Inhibition Assay
Conditions: CHO cells transiently expressing human HSD11β1; 200 nM cortisone+500 uM NADPH overnight; cortisone to cortisol by LC/MS-MS; read-out: 11βHSD1 (IC50)

compound	target.system	IC50
CC(CC(=O)N1C2CC3CC1CC(O)(C3)C2)c1c[nH]c2ccc(F)c(C3CC3)c12 (single isomer, unassigned)	human full length HSD11β1 (Homo sapiens)	> 250 nM
Cn1cc(C(C)(C)CC(=O)N2C3CC4CC2CC(O)(C4)C3)c2ccccc21	human full length HSD11β1 (Homo sapiens)	> 250 nM
CC(CC(=O)N1C2CC3CC1CC(O)(C3)C2)c1c[nH]c2cccc(F)c12 (single isomer, unassigned) [Example 28]	human full length HSD11β1 (Homo sapiens)	200 to 250 nM
CC(CC(=O)N1C2CC3CC1CC(O)(C3)C2)c1c[nH]c2ccccc12 (single isomer, unassigned) [Example 22]	human full length HSD11β1 (Homo sapiens)	> 250 nM
CC(CC(=O)N1C2CC3CC1CC(O)(C3)C2)c1nc2ccc(Cl)cc2s1 (stereo not shown) [Compound 192]	human full length HSD11β1 (Homo sapiens)	< 100 nM
CC(CC(=O)N1C2CC3CC1CC(O)(C3)C2)c1cn(CCO)c2cccc(C3CC3)c12 (stereo not shown)	human full length HSD11β1 (Homo sapiens)	> 250 nM
Cc1cccc2[nH]cc(C(CC(=O)N3C4CC5CC3CC(O)(C5)C4)c3ccccc3)c12 (stereo not shown)	human full length HSD11β1 (Homo sapiens)	> 250 nM

====

Readings of IC50 for the listed compounds
Target: human full length HSD11β1 (Homo sapiens, UniProt P28845)
Construct: transient expression of human full length HSD11β1 expression vector
Sequence (P28845 whole entry): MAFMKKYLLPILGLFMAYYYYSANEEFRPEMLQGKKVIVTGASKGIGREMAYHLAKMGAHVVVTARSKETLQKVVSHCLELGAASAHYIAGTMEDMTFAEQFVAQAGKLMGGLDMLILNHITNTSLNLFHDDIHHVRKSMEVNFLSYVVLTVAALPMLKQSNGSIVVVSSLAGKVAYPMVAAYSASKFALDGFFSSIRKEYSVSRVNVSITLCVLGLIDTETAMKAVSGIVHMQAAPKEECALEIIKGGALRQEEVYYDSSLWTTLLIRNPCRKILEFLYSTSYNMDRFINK
Experiment: In Vitro HSD11β1 Inhibition Assay
Details: CHO cells transiently expressing human HSD11β1; 200 nM cortisone+500 uM NADPH overnight; cortisone to cortisol by LC/MS-MS; read-out: 11βHSD1 (IC50)

compound	IC50
CC(CC(=O)N1C2CC3CC1CC(C#N)(C3)C2)c1nc2c(Cl)cccc2s1 (single isomer, unassigned) [Compound 125]	> 0.25 µM
CC(CC(=O)N1C2CC3CC1CC(O)(C3)C2)c1c[nH]c2cccc(F)c12 (stereo not shown) [Example 26]	0.2 to 0.25 µM
Cc1cccc2c1nnn2C(CC(=O)N1C2CC3CC1CC(O)(C3)C2)C(C)C (stereo not shown)	> 0.25 µM
O=C(CC(c1ccccc1)c1nc2ccccc2s1)N1C2CC3CC1CC(O)(C3)C2 (stereo not shown)	> 0.25 µM
